# System: SN12C renal
# assayExplanation: NCI tumour cell line growth inhibition, 48 h
# TGI annotations

chemicalString: NC1=CN(Cc2ccccc2)C2=N/C(=C\c3ccco3)C(=O)N12
TGI: > 100 µM
//
chemicalString: Cn1c2c(c3c(=O)[nH]ncc31)CCCc1ccccc1-2
TGI: 66.3 µM

# next compound below
Which TGI value is on record for CCCC(CCC)C(=O)O ?
> 20000 µM

----------
# Tested on: MDA-MB-231 breast
# assayExplanation: NCI tumour cell line growth inhibition, 48 h
observationType: TGI

compound: CSc1nc(-c2cccc(NC(=O)CCl)c2)c(C#N)c(=O)n1C
observationType: TGI
result: 3.38 µM

Which TGI value is on record for Cc1cccc2c(=O)c3c(O)cc4c(c3n(C)c12)C=CC(C)(C)O4 ?
> 100 µM

Which TGI value is on record for O=C1Cc2c([nH]c3cc(Br)ccc23)-c2ccccc2N1 ?
> 100 µM

Which TGI value is on record for O=C1CC2OCC=C3CN4CCC56c7ccccc7N1C5C2C3CC46 (stereo unspecified) (tested in a mixture with another compound) ?
> 50 µg/mL

Which TGI value is on record for C[Si](C)(C)C#CCOC=C1CC1 ?
> 100 µM

----------
# Tested on: LOX IMVI melanoma
# assayExplanation: NCI tumour cell line growth inhibition, 48 h
observationType: TGI

compound: Cc1ccc2nnc(NS(=O)(=O)c3cc(C)c(Cl)cc3S)n2n1
TGI: > 100 µM

Which TGI value is on record for COc1cc2c3c(n(CCCN4CCN(CCO)CC4)c(=O)c2cc1OC)-c1cc2c(cc1C3=O)OCO2 ?
8.77 µM

Which TGI value is on record for NC(=O)N=Nc1c2ccccc2n2[nH]ccc12 ?
> 100 µM

Which TGI value is on record for COc1ccc(-c2cc(-c3ccccc3)nc(N)n2)c(O)c1 ?
> 100 µM

Which TGI value is on record for CCCC(CCC)C(=O)O ?
> 20000 µM

Which TGI value is on record for COc1cc2c(cc1OC)C(=O)N1CCCC1C(=O)S2 (stereo unspecified) ?
> 100 µM

Which TGI value is on record for CCOC(=O)c1c(CN2CCOCC2)n(Cc2ccccc2)c2c1cc(O)c1nc(C)c(C)nc12 ?
> 100 µM

Which TGI value is on record for O=c1c2cc([N+](=O)[O-])cnc2sn1-c1ccc(Br)cc1 ?
52.5 µM

Which TGI value is on record for C=C1C(OCCO)OC2O[C@]3(C)CCC4[C@H](C)CCC1C24OO3 (stereo partly specified) ?
19.2 µM

Which TGI value is on record for Cc1nc2c(s/c(=N\N)n2-c2ccccc2)c(=O)n1C ?
> 100 µM

Which TGI value is on record for COC1=CC(=O)C2C(C1=O)[C@@H]1c3ccccc3OC[C@H]21 (stereo partly specified) ?
> 100 µM

----------
# Tested on: SN12C renal
# assayExplanation: NCI tumour cell line growth inhibition, 48 h
Where a SMILES comes first, the peptide text is derived from it. The star is where a group is joined. Fmoc = O=C(OCC1c2ccccc2-c2ccccc21)*; Boc = CC(C)(C)OC(=O)*
# TGI annotations

Answered examples (3):
compound: CC(C)(C)OC(=O)NCCCCC(NC(=O)C(Cc1c[nH]c2ccccc12)NC(=O)OCC1c2ccccc2-c2ccccc21)C(=O)O (configuration not stated) (Fmoc-Trp-Lys(Boc)-OH; configuration not given here)
TGI: > 100 µM
--
compound: C[C@H](c1ccc(Cl)cc1[N+](=O)[O-])N1C(=O)c2cc(I)ccc2NC(=O)[C@H]1c1ccc(Cl)cc1
TGI: > 100 µM
--
compound: CN/N=C(/CC(=O)c1sc(NNC(C)=O)nc1C)C(=O)Nc1ccc(OC)cc1OC
TGI: > 100 µM

Which TGI value is on record for CSc1nc(-c2cccc(NC(=O)CCl)c2)c(C#N)c(=O)n1C ?
18.1 µM

Which TGI value is on record for Nc1ccc2c(c1)S(=O)(=O)c1cc(N)ccc1-2 ?
> 100 µM

Which TGI value is on record for COc1cc2c(cc1OC)C(=O)N1CCCC1C(=O)S2 (configuration not stated) ?
> 100 µM
